These measurements were taken from patent US10851093B2.

measured-target: Axl (Homo sapiens)
Construct: Seed HUVECs (10K cells/well) in EBM-2 complete media
assay-protocol: Phospho-AKT HTRF, HUVEC, Axl ABX-L, 8 pt
assay-conditions: HUVEC cells, pAkt(Ser473) HTRF, Axl ABX-L stimulation
EC50: recorded values

Example compounds with recorded EC50:
[[record]]
compound = "COc1cc2nccc(Oc3ccc(NC(=O)c4nc(-c5ccccc5)c5c(n4)C4CCN5CC4)nc3)c2cc1OC [Compound 38]"
reading = "13.1 nM"

[[record]]
compound = "COc1cc2c(Oc3ccc(NC(=O)c4nc(-c5ccccc5)c5c(n4)C4CCN5CC4)nc3)ccnc2cc1OCCCN1CCOCC1 [Compound 35]"
reading = "3 nM"

[[record]]
compound = "COc1cc2c(Oc3ccc(NC(=O)c4cc(N5CC6(COC6)C5)ccn4)nc3)ccnc2cc1OCCCN1CCOCC1 [Compound 19]"
reading = "568 nM"

[[record]]
compound = "COc1cc2c(Oc3ccc(NC(=O)c4csc(-c5ccc(F)cc5)n4)nc3)ccnc2cc1OCCCN1CCOCC1 [Compound 43]"
reading = "55.2 nM"


Here's the next entry for you.
stdin: Endpoint output: EC50 of COc1cc2c(Oc3ccc(NC(=O)c4nc(-c5ccccc5)c5ccccc5n4)nc3)ccnc2cc1OCCCN1CCOCC1 [Compound 5] . Value?
stdout: 1.4 nM

###

EC50: recorded values
measured-target: Axl (Homo sapiens, UniProt P30530)
Construct: Seed HUVECs (10K cells/well) in EBM-2 complete media
Sequence (P30530 26-894): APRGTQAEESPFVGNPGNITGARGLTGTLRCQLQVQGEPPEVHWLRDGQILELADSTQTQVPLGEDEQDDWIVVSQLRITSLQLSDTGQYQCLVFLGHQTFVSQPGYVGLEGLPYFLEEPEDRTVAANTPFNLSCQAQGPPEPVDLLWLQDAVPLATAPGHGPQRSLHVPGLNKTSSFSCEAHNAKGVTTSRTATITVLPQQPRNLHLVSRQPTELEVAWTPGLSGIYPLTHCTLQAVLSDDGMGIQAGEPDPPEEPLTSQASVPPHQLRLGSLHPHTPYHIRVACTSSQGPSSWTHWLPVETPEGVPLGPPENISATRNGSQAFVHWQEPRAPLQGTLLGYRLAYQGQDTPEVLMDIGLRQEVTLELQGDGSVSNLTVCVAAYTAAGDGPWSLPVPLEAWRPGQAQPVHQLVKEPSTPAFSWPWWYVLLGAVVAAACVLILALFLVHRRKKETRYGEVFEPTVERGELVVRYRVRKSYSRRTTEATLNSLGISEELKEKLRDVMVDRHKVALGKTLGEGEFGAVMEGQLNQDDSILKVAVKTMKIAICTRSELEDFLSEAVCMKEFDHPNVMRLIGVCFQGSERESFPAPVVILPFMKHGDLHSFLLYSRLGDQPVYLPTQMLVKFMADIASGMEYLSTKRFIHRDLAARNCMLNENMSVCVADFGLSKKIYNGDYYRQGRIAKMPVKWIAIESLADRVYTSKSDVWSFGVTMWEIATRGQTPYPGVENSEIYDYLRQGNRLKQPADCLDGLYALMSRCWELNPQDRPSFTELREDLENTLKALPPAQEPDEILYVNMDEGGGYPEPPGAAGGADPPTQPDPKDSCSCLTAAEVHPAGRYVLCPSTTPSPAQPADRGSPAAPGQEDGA
assay-protocol: Phospho-AKT HTRF, HUVEC, Axl ABX-L, 8 pt
assay-conditions: HUVEC cells, pAkt(Ser473) HTRF, Axl ABX-L stimulation
The reply should be a number in nM, with the unit left off.

[[record]]
molecule = "COc1cc2c(Oc3ccc(NC(=O)c4cc(-c5ccccc5)c5c(n4)C4CCN5CC4)nc3)ccnc2cc1OCCCN1CCOCC1 [Compound 7]"
measured_target = "Axl (Homo sapiens, UniProt P30530)"
reading = 18.2

[[record]]
molecule = "COc1cc2c(Oc3ccc(NC(=O)c4ncc(Br)s4)nc3)ccnc2cc1OCCCN1CCOCC1 [Compound 44]"
measured_target = "Axl (Homo sapiens, UniProt P30530)"
reading = 102

[[record]]
molecule = "COc1cc2c(Oc3ccc(NC(=O)c4cccc(N5CCOCC5)n4)nc3)ccnc2cc1OCCCN1CCOCC1 [Compound 25]"
measured_target = "Axl (Homo sapiens, UniProt P30530)"
reading = 112


stdin: Form: Entry = COc1cc2c(Oc3ccc(NC(=O)c4nc5ccccc5c(=O)[nH]4)nc3)ccnc2cc1OCCCN1CCOCC1 [Compound 12] | System = Axl (Homo sapiens, UniProt P30530) | EC50 = ____
stdout: 99.4

stdin: And what about the molecule COc1cc2c(Oc3ccc(NC(=O)c4cccc(N5CCCC5)n4)nc3)ccnc2cc1OCCCN1CCOCC1 [Compound 26] ?
stdout: 32

stdin: And what about the molecule CCOC1CCN(c2ccnc(C(=O)Nc3ccc(Oc4ccnc5cc(OCCCN6CCOCC6)c(OC)cc45)cn3)c2)CC1 [Compound 15] ?
stdout: 257

stdin: And what about the molecule COc1cc2c(Oc3ccc(NC(=O)c4nc(-c5ccccc5)c5c(n4)C4CCN5CC4)nc3)ccnc2cc1OCc1ccccc1 [Compound 37] ?
stdout: 38.4

stdin: And what about the molecule COc1cc2c(Oc3ccc(NC(=O)c4csc(N5CCC(O)CC5)n4)nc3)ccnc2cc1OCCCN1CCOCC1 [Compound 41] ?
stdout: 2120

stdin: And what about the molecule COc1cc2c(Oc3ccc(NC(=O)c4cc(N5CCC(O)CC5)ccn4)nc3)ccnc2cc1OCCCN1CCOCC1 [Compound 11] ?
stdout: 197

###

measured-target: MerTK (Homo sapiens)
Construct: Seed HUVECs (10K cells/well) in EBM-2 complete media
Sequence (Q12866 21-999): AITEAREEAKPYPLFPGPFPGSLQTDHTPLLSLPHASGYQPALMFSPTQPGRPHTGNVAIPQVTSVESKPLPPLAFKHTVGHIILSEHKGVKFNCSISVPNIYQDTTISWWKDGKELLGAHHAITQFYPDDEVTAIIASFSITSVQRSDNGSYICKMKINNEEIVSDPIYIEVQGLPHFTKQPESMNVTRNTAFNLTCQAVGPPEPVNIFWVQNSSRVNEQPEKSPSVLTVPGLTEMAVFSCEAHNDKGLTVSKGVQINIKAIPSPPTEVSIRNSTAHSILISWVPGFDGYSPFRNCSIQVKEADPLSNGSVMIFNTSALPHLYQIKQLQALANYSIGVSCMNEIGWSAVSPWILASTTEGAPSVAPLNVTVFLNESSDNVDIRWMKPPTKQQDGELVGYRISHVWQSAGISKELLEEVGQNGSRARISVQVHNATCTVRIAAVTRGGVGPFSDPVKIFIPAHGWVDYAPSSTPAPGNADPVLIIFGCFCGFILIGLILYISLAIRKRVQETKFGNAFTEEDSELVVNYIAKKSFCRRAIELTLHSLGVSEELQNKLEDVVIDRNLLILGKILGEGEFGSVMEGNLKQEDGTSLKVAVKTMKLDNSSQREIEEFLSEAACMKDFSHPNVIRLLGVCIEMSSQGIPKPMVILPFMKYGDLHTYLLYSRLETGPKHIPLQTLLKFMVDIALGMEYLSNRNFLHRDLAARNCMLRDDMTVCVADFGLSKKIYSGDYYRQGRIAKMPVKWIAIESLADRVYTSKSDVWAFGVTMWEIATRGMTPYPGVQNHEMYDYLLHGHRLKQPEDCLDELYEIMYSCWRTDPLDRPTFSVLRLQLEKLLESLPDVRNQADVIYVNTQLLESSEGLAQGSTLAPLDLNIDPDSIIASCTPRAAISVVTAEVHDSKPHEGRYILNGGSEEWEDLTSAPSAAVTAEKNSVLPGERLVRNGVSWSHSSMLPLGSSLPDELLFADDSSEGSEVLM
assay-protocol: Phospho-AKT HTRF, HUVEC, Mer-XL, 8 pt (pAKT HTRF-HUVEC assay, anti-human MerTK-XL stimulation)
assay-conditions: HUVEC cells, pAkt(Ser473) HTRF, anti-human MerTK-XL stimulation 1 ug/mL 10 minutes
readout-name: pEC50
Recall that pEC50 is obtained by taking minus log10 of the concentration measured in molar.

stdin: Endpoint output: pEC50 of COc1cc2c(Oc3ccc(NC(=O)c4csc(Br)n4)nc3)ccnc2cc1OCCCN1CCOCC1 . Value?
stdout: 7.57

stdin: And what about the compound COc1cc2c(Oc3ccc(NC(=O)c4cc(-c5ccccc5)c5c(n4)C4CCN5CC4)nc3)ccnc2cc1OCCCN1CCOCC1 [Compound 2] ?
stdout: 7.33

stdin: And what about the compound COc1cc2c(Oc3ccc(NC(=O)c4nc5ccccc5c(=O)[nH]4)nc3)ccnc2cc1OCCCN1CCOCC1 [Compound 9, trifluoroacetic acid] ?
stdout: 7.37

stdin: And what about the compound COc1cc2c(Oc3ccc(NC(=O)c4cccc(N5CCOCC5)n4)nc3)ccnc2cc1OCCCN1CCOCC1 ?
stdout: 7.84

stdin: And what about the compound COc1cc2c(Oc3ccc(NC(=O)c4cc(C(F)(F)F)ccn4)nc3)ccnc2cc1OCCCN1CCOCC1 ?
stdout: 6.74

stdin: And what about the compound COc1cc2c(Oc3ccc(NC(=O)c4cccc(-c5ccccc5)n4)nc3)ccnc2cc1OCCCN1CCOCC1 ?
stdout: 8.31

stdin: And what about the compound COc1cc2c(Oc3ccc(NC(=O)c4cc(N5CCCCC5)ccn4)nc3)ccnc2cc1OCCCN1CCOCC1 ?
stdout: 7.69

###

measured-target: Axl (Homo sapiens, UniProt P30530)
Construct: Seed HUVECs (10K cells/well) in EBM-2 complete media
assay-protocol: Phospho-AKT HTRF, HUVEC, Axl ABX-L, 8 pt
assay-conditions: HUVEC cells, pAkt(Ser473) HTRF, Axl ABX-L stimulation
Would you mind sorting the entries by EC50 according to these classes? category 1: < 50 nM; category 2: ≥ 50 nM and < 200 nM; category 3: ≥ 200 nM

[[record]]
compound = "COc1cc2c(Oc3ccc(NC(=O)c4cc(-c5ccccc5)ccn4)nc3)ccnc2cc1OCCCN1CCOCC1"
measured_target = "Axl (Homo sapiens, UniProt P30530)"
answer_label = "category 2"

[[record]]
compound = "COc1cc2c(Oc3ccc(NC(=O)c4cc(N5CC(F)(F)C5)ccn4)nc3)ccnc2cc1OCCCN1CCOCC1"
measured_target = "Axl (Homo sapiens, UniProt P30530)"
answer_label = "category 2"

[[record]]
compound = "COc1cc2c(Oc3ccc(NC(=O)c4cccc(N5CCC(F)(F)CC5)n4)nc3)ccnc2cc1OCCCN1CCOCC1"
measured_target = "Axl (Homo sapiens, UniProt P30530)"
answer_label = "category 1"

[[record]]
compound = "COc1cc2c(Oc3ccc(NC(=O)c4nccc(-c5ccccc5)n4)nc3)ccnc2cc1OCCCN1CCOCC1"
measured_target = "Axl (Homo sapiens, UniProt P30530)"
answer_label = "category 1"

[[record]]
compound = "COc1cc2c(Oc3ccc(NC(=O)c4cc(N5CCC(c6ccccc6)CC5)ccn4)nc3)ccnc2cc1OCCCN1CCOCC1"
measured_target = "Axl (Homo sapiens, UniProt P30530)"
answer_label = "category 3"

[[record]]
compound = "COc1cc2c(Oc3ccc(NC(=O)c4cccc(-c5ccccc5)n4)nc3)ccnc2cc1OCCCN1CCOCC1"
measured_target = "Axl (Homo sapiens, UniProt P30530)"
answer_label = "category 1"

[[record]]
compound = "COc1cc2c(Oc3ccc(NC(=O)c4cccc(N5CC(F)(F)C5)n4)nc3)ccnc2cc1OCCCN1CCOCC1"
measured_target = "Axl (Homo sapiens, UniProt P30530)"
answer_label = "category 2"

[[record]]
compound = "COc1cc2c(Oc3ccc(NC(=O)c4cc(N5CCOCC5)ccn4)nc3)ccnc2cc1OCCCN1CCOCC1"
measured_target = "Axl (Homo sapiens, UniProt P30530)"
answer_label = "category 3"


stdin: Hi there! Could you help me figure out the category for COc1cc2c(Oc3ccc(NC(=O)c4cc(-c5ccccc5)c5c(n4)C4CCN5CC4)nc3)ccnc2cc1OCCCN1CCOCC1 [Compound 2] please?
stdout: category 1

###

measured-target: MerTK (Homo sapiens)
Construct: Seed HUVECs (10K cells/well) in EBM-2 complete media
assay-protocol: Phospho-AKT HTRF, HUVEC, Mer-XL, 8 pt (pAKT HTRF-HUVEC assay, anti-human MerTK-XL stimulation)
assay-conditions: HUVEC cells, pAkt(Ser473) HTRF, anti-human MerTK-XL stimulation 1 ug/mL 10 minutes
readout-name: pEC50
Recall that pEC50 is obtained by taking minus log10 of the concentration measured in molar.

stdin: Endpoint output: pEC50 of COc1cc2c(Oc3ccc(NC(=O)c4nc(-c5ccccc5)c5c(n4)C4CCN5CC4)nc3)ccnc2cc1OCCCN1CCOCC1 [Compound 6] . Value?
stdout: 8.60

stdin: And what about the compound COc1cc2c(Oc3ccc(NC(=O)c4cccc(N5CCC(O)CC5)n4)nc3)ccnc2cc1OCCCN1CCOCC1 ?
stdout: 6.18

stdin: And what about the compound COc1cc2c(Oc3ccc(NC(=O)c4nc(-c5ccccc5)c5ccccc5n4)nc3)ccnc2cc1OCCCN1CCOCC1 ?
stdout: 8.66

stdin: And what about the compound COc1cc2c(Oc3ccc(NC(=O)c4cc(N5CCOCC5)ccn4)nc3)ccnc2cc1OCCCN1CCOCC1 ?
stdout: 6.37

stdin: And what about the compound COc1cc2c(Oc3ccc(NC(=O)c4ncc(Br)s4)nc3)ccnc2cc1OCCCN1CCOCC1 ?
stdout: 7.10

stdin: And what about the compound COc1cc2c(Oc3ccc(NC(=O)c4cc(N5CCN(C)CC5)ccn4)nc3)ccnc2cc1OCCCN1CCOCC1 ?
stdout: 6.38

stdin: And what about the compound COc1cc2c(Oc3ccc(NC(=O)c4cc(N5CCC(O)CC5)ccn4)nc3)ccnc2cc1OCCCN1CCOCC1 [Compound 8, trifluoroacetic acid] ?
stdout: 7.04
